biological target: F-actin from rabbit back muscle (rabbit, UniProt P68135 1-377); experiment: SPR
Reported Maximum Signal (Δpm) is given for each of the following binders.

{"Binder": "SKTRGNAKVTGRWK (peptide, UniProt P45379-6 275-288, looked up) [Human cTnT-C14 peptide containing HCM-linked mutation K280N]", "Maximum Signal (Δpm)": "112 Δpm"}
{"Binder": "SKTRGKAKVTGCWK (peptide, UniProt P45379-6 275-288, looked up) [Human cTnT-C14 peptide containing HCM-linked mutation R286C]", "Maximum Signal (Δpm)": "112 Δpm"}
{"Binder": "SKTCGKAKVTGRWK (peptide, UniProt P45379-6 275-288, looked up) [Human cTnT-C14 peptide containing HCM-linked mutation R278C]", "Maximum Signal (Δpm)": "144 Δpm"}

IN: Could you share which Maximum Signal (Δpm) value was measured for SKTRGKAKVTGRWK (peptide, UniProt P45379-6 275-288, looked up) ?
OUT: 397 Δpm

Where do these numbers come from? They come from paper PMC13334471.
